assayed-system: ZFP SBS#1356 (synthetic)
Sequence (chain, as listed by the source): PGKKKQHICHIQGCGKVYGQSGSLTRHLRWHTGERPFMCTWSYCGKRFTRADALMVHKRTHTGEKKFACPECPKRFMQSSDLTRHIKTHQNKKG
procedure-details: EMSA
experimental-setup: tags: MBP fusion
endpoint-name: pKd
Numbers only, as −log10 of the molar value.

Sample GCTTTGGCA (dsDNA) DNA 1: GCTTTGGCA DNA 2: TGCCAAAGC ; pKd observed: 10.47
